Origin of values: ChEMBL document CHEMBL5291721

targetOrSystem: Thromboxane A2 receptor (Homo sapiens, UniProt P21731); further: assay procedure not described here
Sequence (P21731 whole entry): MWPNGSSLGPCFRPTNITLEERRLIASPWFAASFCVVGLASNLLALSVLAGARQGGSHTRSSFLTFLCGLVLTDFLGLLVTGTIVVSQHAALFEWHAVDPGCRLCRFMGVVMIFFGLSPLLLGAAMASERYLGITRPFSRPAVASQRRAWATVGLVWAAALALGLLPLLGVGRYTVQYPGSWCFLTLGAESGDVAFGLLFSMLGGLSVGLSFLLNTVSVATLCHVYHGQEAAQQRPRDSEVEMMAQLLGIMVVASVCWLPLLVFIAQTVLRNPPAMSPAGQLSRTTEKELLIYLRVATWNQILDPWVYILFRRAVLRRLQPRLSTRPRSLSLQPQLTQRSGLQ
Type: functional, cell-based
parameterMeasured: AC50

Here is how some compounds turned out for AC50.
CCC(=O)O[C@]1(C(=O)CCl)[C@@H](C)C[C@H]2[C@@H]3C[C@H](F)C4=CC(=O)C=C[C@]4(C)[C@@]3(F)[C@@H](O)C[C@@]21C [HALOBETASOL PROPIONATE]
> 30 µM
C/C=C/C/C=C/CCC(=O)[C@H]1O[C@H]1C(N)=O [CERULENIN]
> 30 µM
COc1cc2nc(N3CCN(C(=O)C4CCCO4)CC3)nc(N)c2cc1OC (centres undefined) [TERAZOSIN]
> 30 µM
CCOC(=O)C1=C[C@@H](OC(CC)CC)[C@H](NC(C)=O)[C@@H](N)C1 [OSELTAMIVIR]
> 30 µM
CN1CCN(C2=Nc3ccccc3Oc3ccc(Cl)cc32)CC1 [LOXAPINE]
18.5 µM
CC(=O)O[C@]1(C(C)=O)CC[C@H]2[C@@H]3C=C(Cl)C4=CC(=O)CC[C@]4(C)[C@H]3CC[C@@]21C [CHLORMADINONE ACETATE]
28.5 µM

Exercise: # return recorded AC50 for entry CCCC(CCC)C(=O)O [VALPROIC ACID]
Solution: > 30 µM

Exercise: # return recorded AC50 for entry CC(C)Cc1ccc(C(C)C(=O)O)cc1 (centres undefined) [IBUPROFEN]
Solution: > 30 µM

Exercise: # return recorded AC50 for entry C[C@H](Cc1cc2c(c(C(N)=O)c1)N(CCCO)CC2)NCCOc1ccccc1OCC(F)(F)F [SILODOSIN]
Solution: > 30 µM

====

System: D(1A) dopamine receptor (Homo sapiens) | Read-out: AC50; further: assay procedure not described here
Sequence (P21728 whole entry): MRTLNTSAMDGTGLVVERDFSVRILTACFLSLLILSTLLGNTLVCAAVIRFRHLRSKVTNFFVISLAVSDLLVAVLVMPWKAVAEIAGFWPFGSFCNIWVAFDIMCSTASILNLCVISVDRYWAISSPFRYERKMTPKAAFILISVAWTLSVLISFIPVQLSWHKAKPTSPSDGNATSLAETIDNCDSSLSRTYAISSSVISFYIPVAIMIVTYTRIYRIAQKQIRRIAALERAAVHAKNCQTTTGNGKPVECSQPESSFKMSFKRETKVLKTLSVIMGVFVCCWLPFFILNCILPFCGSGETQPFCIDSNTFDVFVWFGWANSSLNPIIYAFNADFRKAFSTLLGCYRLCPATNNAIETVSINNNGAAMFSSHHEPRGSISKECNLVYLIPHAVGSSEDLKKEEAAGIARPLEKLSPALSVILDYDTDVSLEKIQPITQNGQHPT

CC(C(=O)O)c1ccc(-c2ccccc2)c(F)c1 (centres undefined)
> 30 µM
CC[C@@H]([C@H](C)O)n1ncn(-c2ccc(N3CCN(c4ccc(OC[C@@H]5CO[C@@](Cn6cncn6)(c6ccc(F)cc6F)C5)cc4)CC3)cc2)c1=O
> 30 µM
CC[C@H](C)C[C@H](C)CCCCCCCCC(=O)N[C@H]1C[C@@H](O)[C@@H](NCCN)NC(=O)[C@@H]2[C@@H](O)CCN2C(=O)[C@H]([C@H](O)CCN)NC(=O)[C@H]([C@H](O)[C@@H](O)c2ccc(O)cc2)NC(=O)[C@@H]2C[C@@H](O)CN2C(=O)[C@H]([C@@H](C)O)NC1=O
8.83 µM

Proceeding to the next compound to report its AC50.
Exercise: # return recorded AC50 for entry Cc1ccccc1C(=O)Nc1ccc(C(=O)N2CCCC(N(C)C)c3ccccc32)cc1 (centres undefined)
Solution: > 30 µM
